value_kind: melting point

Oc1cnccc1CCCOc1cccnc1Cc1cccc(Br)c1 ... 138 to 139 °C
CCOC(=O)C(O)CCc1ccc(OC)c(OCc2ccccc2)c1 (stereo not given) ... 93 to 94 °C
CCc1c(NC(=O)c2cc(S(C)(=O)=O)ccc2OCC(C)C)c(C(N)=O)nn1Cc1nccn1C ... 201 to 206 °C
COP(=O)(OC)C(NC=O)P(=O)(OC)OC ... 95 °C

We now examine a further molecule.
Asked: Find the recorded melting point belonging to O=c1[nH]c(=O)n(CCCCN2CCC(OC(c3ccccc3)c3ccccc3)CC2)c2cc(Cl)ccc12 and report it.
Given back: 169 to 171 °C

====

value_kind: melting point

CCN1C(Cl)=NC(C)=NS1(=O)=O ... 57 to 59 °C
CC(=O)Nc1ccc2c(c1)NC(=O)C2=C(C)C ... 93 °C
O=C(c1ccc(F)cc1)c1cccc(C#Cc2ccc(F)cc2)c1 ... 127 to 128 °C

Asked: Find the recorded melting point belonging to CN1CCc2cc(C=O)sc2C(c2ccccc2)C1 (stereo unspecified) and report it.
Given back: 88 °C

Asked: Ok, now COCCOc1cc2ncc(C#N)c(Cl)c2cc1O
Given back: 174 to 175 °C

Asked: Ok, now O=C(O)CC1(C(=O)O)CCOc2ccc(C(=O)O)cc21 (stereo unspecified)
Given back: 198 to 200 °C

Asked: Ok, now COc1c(Cl)ccc(-c2nc(C(=O)OC(C)C)c(I)c(N)c2F)c1F
Given back: 134 to 135 °C

Asked: Ok, now COc1cccc2c1cc(C(=O)OCc1ccccc1)n2CC(=O)OC(C)(C)C
Given back: 96 to 98 °C

====

Let's look at some compounds and their measured melting point.

Guide cases for melting point, answers given:
Cc1ccc(OCC(=O)O)c2c3c(C(N)=O)cccc3n(Cc3ccccc3)c12 ... 253 to 254 °C
CCc1nc2c(C)cc(C)nc2n1Cc1cccc(C(=Cc2nnn[nH]2)c2ccccc2)c1 ... 187 to 195 °C

Asked: Find the recorded melting point belonging to COc1ccnc(NC(=O)NS(=O)(=O)c2ccccc2-c2nn(C)c(=O)o2)n1 and report it.
Given back: 223 to 224 °C

Asked: Ok, now COc1cc(OC)c2c(=O)[nH]c(-c3ccc(OCCNC(C)C)c(-c4cccc(S(C)=O)c4)n3)nc2c1 (stereo not given)
Given back: 156 to 157 °C

Asked: Ok, now O=c1[nH]c2ccc(S(=O)CCN3CCC(Cc4ccc(F)cc4)CC3)cc2o1 (stereo not given)
Given back: 202 to 204 °C

Asked: Ok, now O=CNc1ccc(-c2ccc(C(=O)N3CCN4CCC3CC4)o2)cc1
Given back: 236 °C

Asked: Ok, now N#CCCn1cnc([N+](=O)[O-])c1
Given back: 112 to 113 °C

Asked: Ok, now O=C1Nc2cccnc2Nc2ccc(Br)cc21
Given back: 187 to 188 °C

Asked: Ok, now NC(=CC(=O)c1ccncc1)C1CC1
Given back: 124 to 125 °C

Asked: Ok, now CC(C)(C)c1ccc(CNC(=S)NC(C)(C)c2ccc(NS(C)(=O)=O)cc2)cc1
Given back: 161 to 164 °C

====

Let's look at some compounds and their measured melting point.

O=C(c1ccc(F)cc1)C1CCN(CCCCn2c(=O)[nH]c3cscc3c2=O)CC1 ... 190 to 192 °C
CCC(C(=O)c1ccc(OCc2ccccc2)cc1)c1ccccc1 (stereo not given) ... 71 °C
COc1cccc(C=CC(=O)C2C(=O)CCC2=O)c1O ... 198 to 200 °C
Clc1ccc(C=Cc2nc(CNc3ccc(CCCCn4ccnn4)cc3)co2)cc1 ... 120 to 122 °C
c1ccc(CSc2cn3ccsc3n2)cc1 ... 76 to 77 °C

Asked: Find the recorded melting point belonging to COc1ccc(OC)n2nc(S(=O)(=O)Nc3c(F)cccc3F)nc12 and report it.
Given back: 319 to 320 °C

Asked: Ok, now Cc1c(C)c2c(c(C)c1NC=O)CC(C)(CO)O2 (stereo not given)
Given back: 149 to 150 °C

====

value_kind: melting point

C[Si](Cn1ncnc1S)(c1ccc(F)cc1)c1ccc(F)cc1 ... 97 to 99 °C

Asked: Find the recorded melting point belonging to CC(COc1ccc(C(N)=O)c(O)c1)NCC(O)COc1cccc2c1CCC(=O)N2 (stereo not given) and report it.
Given back: 239 to 245 °C

Asked: Ok, now CC(=O)Nc1cccc2c1C(=O)c1c-2n[nH]c1C(C)C
Given back: > 250 °C

Asked: Ok, now COc1ccc(N(N=Cc2ccccc2)C(=O)c2ccccc2)cc1
Given back: 151 to 153 °C

Asked: Ok, now CN1c2ccc(Cl)cc2C(c2ccccc2[N+](=O)[O-])=Nc2cccnc21
Given back: 165 to 166 °C

====

Let's look at some compounds and their measured melting point.

Asked: Find the recorded melting point belonging to O=C(O)CCc1c(C(=O)O)[nH]c2cc(-c3ccccc3)ccc12 and report it.
Given back: 238 to 239 °C

Asked: Ok, now CCOC(=O)c1cc2cc(-c3ccccc3)ccc2o1
Given back: 109 to 110 °C

Asked: Ok, now Cn1ncc2c(C(F)(F)F)cc(Cl)nc21
Given back: 123 °C

Asked: Ok, now CCCCOC(C(=O)O)c1ccc2c(c1)C(C)(C)CCC2(C)C (racemic)
Given back: 79 to 82 °C

====

Let's look at some compounds and their measured melting point.

Guide cases for melting point, answers given:
CC(C)C1NCC(=O)N1CC(N)=O (stereo unspecified) ... 64 °C
CNC(=O)c1cccc(NC(=O)Cc2c(C)ccc3ccccc23)c1 ... 230 to 231 °C
CCn1ccc(=O)c2cnc(-c3ccc(O)cc3)nc21 ... 320 to 324 °C
CC(F)(F)c1cccc(C[C@H]2NC(=O)O[C@H]2c2ccc(F)cc2)c1 (racemic) ... 143 to 144 °C
CCCCC(CC)COc1ccc(-n2c(C)cc(=O)cc2C)cc1 (stereo unspecified) ... 143 °C
CCCCCCCCC#Cc1ccc2sc(C=O)cc2c1 ... 45 to 47 °C
CNC(=O)c1ccccc1Nc1nc(Nc2cc3c(cc2OC)CCN(CCOC)CC3)ncc1Br ... 171 to 175 °C
COc1cc(OC)nc(C2(O)OC(=O)c3c(-c4ccco4)ccnc32)n1 (stereo unspecified) ... 198 to 204 °C
Cc1c2c(nn1-c1ccccc1)c(Cl)nc1ccccc12 ... 208 to 209 °C
COC(C)=CC(=O)NC1CCCCC1 ... 109 °C

Asked: Find the recorded melting point belonging to COC(=O)c1ccc(OCCCC2Cc3c(c(OC)c(OC)c(OC)c3OC)C2)cc1 and report it.
Given back: 70 to 72 °C

Asked: Ok, now O=C(O)CCCCCCCCN1NC(c2ccccc2)=C(c2ccccc2)NC1=O
Given back: 97 to 100 °C

Asked: Ok, now CC(C)(C)OC(=O)CN(C(=O)CNC(=O)Nc1ccccc1)c1ccccc1C(=O)c1ccccc1
Given back: 166 to 167 °C

Asked: Ok, now COc1nc(N)nc(C2CC2)n1
Given back: 158 to 159 °C

Asked: Ok, now c1cc(N2CCOCC2)ccn1
Given back: 93 to 95 °C

Asked: Ok, now CC(C)(C)CC(=O)N[C@H]1CC[C@H](CCN2CCN(c3nccc4c3OCC4)CC2)CC1
Given back: 193 °C

Asked: Ok, now Cc1cc2c(Oc3ccccc3Cl)cccc2[nH]1
Given back: 138 to 140 °C

====

value_kind: melting point

Guide cases for melting point, answers given:
Cc1c(CCN(C)C)c2cc(S(=O)(=O)c3ccccc3)ccc2n1C ... 170 to 172 °C
Cn1nc(-c2ccccc2)c2c(C(F)(F)F)cc(OCC(=O)N[C@H]3CCc4ccccc43)nc21 ... 203 to 205 °C
CC(=O)Oc1cc(OCC(OC(C)=O)c2ccc3c(c2)C(C)(C)CCC3(C)C)ccc1C(=O)O (stereo not given) ... 88 to 89 °C

Asked: Find the recorded melting point belonging to O=c1[nH]c2ncc(-c3cccc(-c4nnn[nH]4)c3)nc2n1CC1CCCCC1 and report it.
Given back: 248 to 250 °C

Asked: Ok, now N#Cc1ccc(OCCCNCCO)cc1
Given back: 88 °C

Asked: Ok, now O=C(O)c1[nH]c2cc(Cl)cc(Cl)c2c1N(Cc1ccccc1)C(=O)c1ccccc1
Given back: 266 to 267 °C

Asked: Ok, now CCOCc1nc2c(N)nc3ccccc3c2n1NC1CCCCC1
Given back: 143 to 145 °C

Asked: Ok, now CNC(=O)C(=NOC)c1cccc(Cl)c1COc1ccc(Sc2ccc(C)cc2)cn1
Given back: 100 to 102 °C

Asked: Ok, now CC(=O)C=Cc1ccc(CCNS(=O)(=O)c2ccc(Cl)cc2)cc1
Given back: 111 to 113 °C

Asked: Ok, now COc1ccc(C(=O)C2=C(O)C(=O)N(c3nnc(C)s3)C2c2cccc(C(=O)O)c2)cc1 (stereo not given)
Given back: 281 °C

Asked: Ok, now C=C1N(C(C)(C)C)C(=O)OC12CCN(C(=O)CC)CC2
Given back: 104 to 105 °C

Asked: Ok, now CC(C)c1cc(C(C)C)c(CC(=O)NS(=O)(=O)Oc2c(C(C)C)cc(NS(C)(=O)=O)cc2C(C)C)c(C(C)C)c1
Given back: 164 to 166 °C

Asked: Ok, now COC(=O)C1=C(C)NC(C)=C(c2nc(CN(C)Cc3ccccc3)no2)C1c1cccc([N+](=O)[O-])c1 (stereo not given)
Given back: 127 to 128 °C

Asked: Ok, now CC#CNC(=O)NC(=NC(=O)N(C)C)SC
Given back: 88 to 91 °C

Asked: Ok, now Cc1ccccc1C=CCN1CCc2nc(N)sc2CC1
Given back: 112 to 115 °C

Asked: Ok, now CCCCC[C@H]1CC[C@H](c2ncc(O)cn2)CC1
Given back: 190 to 191 °C

Asked: Ok, now CNC(=O)Oc1ccccc1Cl
Given back: 90 to 91 °C
